Entries and their measured T/C follow.
# Test system: P388 leukemia ip, CD2F1 mice, survival T/C
# experiment: NCI In Vivo Anticancer Drug Screen. Data for tumor model P388 Leukemia (intraperitoneal) in CD2F1 (CDF1) mice
# condition details: endpoint: median survival time; dose: 200.0 mg/kg/injection; schedule: Q01DX005 (ip); vehicle: saline with Tween-80; higher = longer survival
Inconclusive results and toxic doses are left out.

The following compounds have reported results that may help.
{"compound string": "COc1cc2c(cc1Cl)nc1c(=O)[nH]c(=O)nc-1n2CCN1CCCC1", "recorded metric": "T/C", "endpoint result": "114 % of control"}
{"compound string": "Cn1c(=O)c2nncnc2n(C)c1=O", "recorded metric": "T/C", "endpoint result": "94 % of control"}

Query compound follows.
Item `N#CNC(c1ccccc1)(c1ccccc1)c1ccccc1` was tested on P388 leukemia ip, CD2F1 mice, survival T/C; the reported T/C is 94 % of control

====

# Test system: P388 leukemia ip, CD2F1 mice, survival T/C
# experiment: NCI In Vivo Anticancer Drug Screen. Data for tumor model P388 Leukemia (intraperitoneal) in CD2F1 (CDF1) mice
# condition details: endpoint: median survival time; dose: 100.0 mg/kg/injection; schedule: Q04DX003 (ip); vehicle: saline
Inconclusive results and toxic doses are left out. The calls were made as follows: active = survival T/C of 150% or more; inactive = T/C below 125% in these data.
# output must be one of active, inactive

{"compound": "CCCCCCCNC1CCCc2cc(OC)ccc21 (centres undefined)", "class assignment": "inactive"}
{"compound": "CC1C(=O)N(c2ccccc2)c2nc3ccccc3nc21 (centres undefined)", "class assignment": "inactive"}
{"compound": "CCOC1OCN(C)CC1(C)C (centres undefined)", "class assignment": "inactive"}

Challenge: GET /call?item= O=C(O)C1CCC[N-]1.[Cl][Pt][Cl] (centres undefined) returns the recorded outcome of this test.
Response given: active

====

# System: P388 leukemia ip, CD2F1 mice, survival T/C
# experiment: NCI In Vivo Anticancer Drug Screen. Data for tumor model P388 Leukemia (intraperitoneal) in CD2F1 (CDF1) mice
# condition details: endpoint: median survival time; dose: 120.0 mg/kg/injection; schedule: Q01DX005 (ip); vehicle: saline with Tween-80; higher = longer survival
Inconclusive results and toxic doses are left out.
recorded metric: T/C

{"molecule": "COC(=O)C1(CS(C)=O)NC(=S)NC(=O)C1C#N (stereo not drawn)", "test target": "P388 leukemia ip, CD2F1 mice, survival T/C", "T/C": "99 % of control"}
{"molecule": "C(=C\\c1csnn1)/c1ccc(/C=C/c2csnn2)cc1", "test target": "P388 leukemia ip, CD2F1 mice, survival T/C", "T/C": "100 % of control"}

// below: T/C requested for another molecule
Just so you know, measured T/C for `O=C(/C=C/c1c(-c2ccccc2)[nH]c2ccccc12)c1ccc([N+](=O)[O-])cc1` came out at 90 % of control

====

# Tested on: P388 leukemia ip, CD2F1 mice, survival T/C
# experiment: NCI In Vivo Anticancer Drug Screen. Data for tumor model P388 Leukemia (intraperitoneal) in CD2F1 (CDF1) mice
# condition details: endpoint: median survival time; dose: 50.0 mg/kg/injection; schedule: Q01DX009 (ip); vehicle: Klucel (hydroxypropylcellulose) (HPC); higher = longer survival
Inconclusive results and toxic doses are left out.
recorded metric: T/C

Record excerpt, results attached:
{"compound": "C=C[Si]12OCCN(CCO1)CCO2", "test target": "P388 leukemia ip, CD2F1 mice, survival T/C", "recorded metric": "T/C", "endpoint result": "114 % of control"}
{"compound": "Cc1cc(Br)c2c(c1N)C(=O)c1ccccc1C2=O", "test target": "P388 leukemia ip, CD2F1 mice, survival T/C", "recorded metric": "T/C", "endpoint result": "99 % of control"}
{"compound": "O=C(Nc1ccc([N+](=O)[O-])cc1)C1C(=O)C(=O)N(c2ccc([N+](=O)[O-])cc2)C1=O (stereo unspecified)", "test target": "P388 leukemia ip, CD2F1 mice, survival T/C", "recorded metric": "T/C", "endpoint result": "107 % of control"}
{"compound": "NC(CSSCC(N)C(=O)O)C(=O)O (stereo unspecified)", "test target": "P388 leukemia ip, CD2F1 mice, survival T/C", "recorded metric": "T/C", "endpoint result": "105 % of control"}
{"compound": "C=C1C(=O)OC2/C=C(/C)C3(O)OC(C)(CC(OC(=O)C(C)C)C12)CC3OC(C)=O (stereo unspecified)", "test target": "P388 leukemia ip, CD2F1 mice, survival T/C", "recorded metric": "T/C", "endpoint result": "116 % of control"}

Let us move to another entry and its T/C.
// `CSC(=NCCCCCCCCN=C(NC#N)SC)NC#N` : T/C value = 94 % of control

====

# System: P388 leukemia ip, CD2F1 mice, survival T/C
# experiment: NCI In Vivo Anticancer Drug Screen. Data for tumor model P388 Leukemia (intraperitoneal) in CD2F1 (CDF1) mice
# condition details: endpoint: median survival time; dose: 200.0 mg/kg/injection; schedule: Q04DX003 (ip); vehicle: saline with Tween-80; higher = longer survival
Toxic doses and inconclusive results are not listed.
recorded metric: T/C

Examples with answers:
{"compound string": "CC1(OC(=O)Nc2ccccc2)CCCCC1", "T/C": "100 % of control"}
{"compound string": "Nc1cc(N)c([N+](=O)[O-])cc1[N+](=O)[O-]", "T/C": "100 % of control"}
{"compound string": "COc1cc(C(=O)CO)cc(OC)c1OC(C)=O", "T/C": "116 % of control"}

Then this molecule:
Sure, the documented T/C for `CN(C)CCNc1ccc(O)c2sc3ccccc3c(=O)c12` is 90 % of control

====

# System: P388 leukemia ip, CD2F1 mice, survival T/C
# experiment: NCI In Vivo Anticancer Drug Screen. Data for tumor model P388 Leukemia (intraperitoneal) in CD2F1 (CDF1) mice
# condition details: endpoint: median survival time; dose: 100.0 mg/kg/injection; schedule: Q01DX009 (ip); vehicle: saline
Toxic doses and inconclusive results are not listed. How the source made its calls: active means survival T/C of 150% or more; inactive means T/C below 125% in these data.
Allowed answers: 1 for active, -1 for inactive

{"compound": "CC(=O)OC/C(C)=N\\NS(=O)(=O)c1cc(Cl)c(Cl)cc1Cl", "test target": "P388 leukemia ip, CD2F1 mice, survival T/C", "class assignment": -1}
{"compound": "Cc1ccno1", "test target": "P388 leukemia ip, CD2F1 mice, survival T/C", "class assignment": -1}
{"compound": "CC(C)NCC(O)c1cc(Br)c(Br)s1 (stereo unspecified)", "test target": "P388 leukemia ip, CD2F1 mice, survival T/C", "class assignment": -1}

Challenge: Record lookup: outcome of this test for `O=CNCC(=O)O` ?
Response given: -1

Challenge: Could you kindly confirm the outcome this assay logged for CCOC(=O)NCCCCC([NH-])C(=O)O.CCOC(=O)NCCCCC([NH-])C(=O)O.[Cu+2] (stereo unspecified) ?
Response given: -1

Challenge: Dear all, I need the recorded test outcome for O=c1n[n+]([O-])ccn1C1OC(CO)C(O)C1O (stereo unspecified) , thank you.
Response given: -1

Challenge: Please state the recorded outcome for this compound: CCOC(=O)C(Cc1c[nH]c2ccccc12)NCCNc1ccccc1 (stereo unspecified)
Response given: -1

Challenge: Field: outcome | Entry: `CN(C)c1ccc(N)c(N)c1`
Response given: -1

Challenge: Could you kindly confirm the outcome this assay logged for `Clc1cnc(/N=C/c2ccc(/C=N/c3ncc(Cl)cc3Cl)cc2)c(Cl)c1` ?
Response given: -1

====

# Test system: P388 leukemia ip, CD2F1 mice, survival T/C
# experiment: NCI In Vivo Anticancer Drug Screen. Data for tumor model P388 Leukemia (intraperitoneal) in CD2F1 (CDF1) mice
# condition details: endpoint: median survival time; dose: 120.0 mg/kg/injection; schedule: Q01DX005 (ip); vehicle: Klucel (hydroxypropylcellulose) (HPC); higher = longer survival
Toxic doses and inconclusive results are not listed.
Listed below: T/C values for each entry.

{"compound": "Cc1nc2ccccc2c(=O)n1/N=C\\c1ccc2c(c1)CCC2", "endpoint result": "104 % of control"}

For reference, reported T/C for O=C(O)CCC12CCCCC1=NC1(CCCCC1)NC2=O (stereo not drawn) stands at 100 % of control

`C=CCSc1n[nH]c(-c2cccs2)n1` yielded T/C of 109 % of control

====

# Test system: P388 leukemia ip, CD2F1 mice, survival T/C
# experiment: NCI In Vivo Anticancer Drug Screen. Data for tumor model P388 Leukemia (intraperitoneal) in CD2F1 (CDF1) mice
# condition details: endpoint: median survival time; dose: 50.0 mg/kg/injection; schedule: Q01DX005 (ip); vehicle: Klucel (hydroxypropylcellulose) (HPC); higher = longer survival
Inconclusive results and toxic doses are left out.
Entries and their measured T/C follow.

Below, each entry is followed by its recorded T/C result.
{"compound": "CN(NC(=O)C(=O)NCc1ccco1)C(=O)Nc1ccccc1", "T/C": "100 % of control"}
{"compound": "O=C(C[n+]1cc2ccccc2c2ccccc21)c1ccc(-c2ccccc2)cc1", "T/C": "105 % of control"}
{"compound": "OC1CN(c2ccccc2)CC1O (centres undefined)", "T/C": "105 % of control"}

Looking up `Cc1cc2cc3c4c(nn5nnnc5c4c2o1)-c1ccccc1CC3` , I found its T/C recorded as 92 % of control

For this compound ( CCC(C)n1c(C)nc2ncn(-c3ccccc3)c2c1=O (centres undefined) ), measured T/C is 100 % of control

T/C reported for this compound `Cc1ccc(NCn2c(=S)sc3ccccc32)cc1` : 89 % of control
